Tgt: cloned human NK2 receptors (Homo sapiens, UniProt P21452)
Construct: expressed in transfected cells
Sequence (P21452 1-398): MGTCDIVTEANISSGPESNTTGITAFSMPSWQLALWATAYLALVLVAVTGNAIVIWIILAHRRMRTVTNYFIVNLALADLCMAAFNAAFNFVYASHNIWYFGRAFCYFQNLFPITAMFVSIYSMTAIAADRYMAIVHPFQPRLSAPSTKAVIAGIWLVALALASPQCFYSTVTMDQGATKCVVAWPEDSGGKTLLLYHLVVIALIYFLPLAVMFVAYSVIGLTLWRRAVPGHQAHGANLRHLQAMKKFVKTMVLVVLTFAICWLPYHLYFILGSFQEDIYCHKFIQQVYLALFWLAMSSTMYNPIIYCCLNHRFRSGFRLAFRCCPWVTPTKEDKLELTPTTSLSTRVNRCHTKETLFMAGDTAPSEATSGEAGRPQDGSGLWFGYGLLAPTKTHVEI
Assay Explanation: Ca2+ measurements using FLIPR for NK2 activity in CHO cells
Assay type: cell-based
Run Parameters: NKA 10^-7 M as agonist; compound applied 7 min before; pA2 calculated from IC50
Measured Endpoint: pA2 (NK2)

IN: Return pA2 (NK2) for the following compound: COc1ccc([C@@H]([C@H](O)CO)N2CCN(CC[C@H](CN(C)C(=O)c3cc(C#N)cc4ccccc34)c3ccc(Cl)c(Cl)c3)CC2)cc1
OUT: 9,1

---

Readings of IC50 for the listed compounds
Tgt: NK2 receptors (Cavia porcellus, UniProt Q64077)
Assay Explanation: Functional NK2 antagonism on isolated guinea pig gall-bladder preparations (NKA induced contraction)
Output spec: scalar in nM, unitless text.

Some entries whose results are on file:
CN(C[C@@H](CCN1CCN(C(CO)(CO)c2ccco2)CC1)c1ccc(Cl)c(Cl)c1)C(=O)c1cc(C#N)cc2ccccc12 [Compound 6] | 39.8
CN(C[C@@H](CCN1CCN([C@@H](c2ccco2)[C@H]2COC(=O)O2)CC1)c1ccc(Cl)c(Cl)c1)C(=O)c1cc(C#N)cc2ccccc12 [Compound 11] | 15.8
CN(C[C@@H](CCN1CCN([C@@H](c2ccsc2)[C@H](O)[C@@H](O)[C@H](O)CO)CC1)c1ccc(Cl)c(Cl)c1)C(=O)c1cc(C#N)cc2ccccc12 [Compound 5] | 31.6
CN(C[C@@H](CCN1CCN([C@@H](c2ccco2)[C@H](O)[C@@H](O)[C@H](O)CO)CC1)c1ccc(Cl)c(Cl)c1)C(=O)c1cc(C#N)cc2ccccc12 [Compound 2] | 20

Let us examine a further case.
IN: Give the measured IC50 for CN(C[C@@H](CCN1CCN([C@@H](c2ccco2)[C@H](O)CO)CC1)c1ccc(Cl)c(Cl)c1)C(=O)c1cc(C#N)cc2ccccc12 [Compound 1]
OUT: 2

---

Tgt: NK2 receptors (Cavia porcellus, UniProt Q64077)
Sequence (Q64077 1-402): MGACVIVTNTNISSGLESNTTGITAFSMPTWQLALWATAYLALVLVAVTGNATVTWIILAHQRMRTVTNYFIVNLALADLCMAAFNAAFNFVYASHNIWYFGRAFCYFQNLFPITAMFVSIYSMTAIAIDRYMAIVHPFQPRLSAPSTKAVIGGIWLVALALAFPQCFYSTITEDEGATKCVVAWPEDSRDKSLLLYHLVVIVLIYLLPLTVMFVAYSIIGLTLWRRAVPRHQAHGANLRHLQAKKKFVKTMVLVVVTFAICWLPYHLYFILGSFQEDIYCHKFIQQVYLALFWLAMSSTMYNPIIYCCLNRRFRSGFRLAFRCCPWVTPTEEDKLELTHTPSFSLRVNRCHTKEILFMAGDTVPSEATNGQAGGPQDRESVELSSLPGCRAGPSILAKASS
Assay Explanation: NK-2-receptor-antagonistic effectiveness in vivo in anaesthetised guinea pigs (NKA test stimulus: late hypotension, bronchoconstriction, colonic pressure)
Set-up: from tissue; host or cells: whole anaesthetised guinea pig (in vivo); species or system Pirbright-White guinea pigs
Run Parameters: guinea pig, iv, read-out: ED50 iv after 1 min (cumulative) NK2 (late hypotension)
Measured Endpoint: ED50 (µmol/kg)
Write the answer as a number in µmol/kg, unit excluded.

CN(C[C@@H](CCN1CCN([C@@H](c2ccco2)[C@H](O)CO)CC1)c1ccc(Cl)c(Cl)c1)C(=O)c1cc(C#N)cc2ccccc12 [Compound 1] | 0.643
CN(C[C@@H](CCN1CCN([C@@H](c2ccco2)[C@H]2COC(=O)O2)CC1)c1ccc(Cl)c(Cl)c1)C(=O)c1cc(C#N)cc2ccccc12 [Compound 11] | 0.145
CN(C[C@@H](CCN1CCN([C@@H](c2cccs2)[C@H](O)CO)CC1)c1ccc(Cl)c(Cl)c1)C(=O)c1cc(C#N)cc2ccccc12 [Compound 9] | 1.04
CN(C[C@@H](CCN1CCN([C@@H](c2ccsc2)[C@H]2COC(=O)O2)CC1)c1ccc(Cl)c(Cl)c1)C(=O)c1cc(C#N)cc2ccccc12 [Compound 10] | 0.04
CN(C[C@@H](CCN1CCN([C@@H](c2ccco2)[C@H](O)[C@@H](O)[C@H](O)CO)CC1)c1ccc(Cl)c(Cl)c1)C(=O)c1cc(C#N)cc2ccccc12 [Compound 2] | 0.106

IN: Give ED50 for CN(C[C@@H](CCN1CCN([C@@H](c2ccsc2)[C@H](O)CO)CC1)c1ccc(Cl)c(Cl)c1)C(=O)c1cc(C#N)cc2ccccc12 [Compound 8]
OUT: 0.803

IN: Supply recorded ED50 for CN(C[C@@H](CCN1CCN([C@@H](c2ccccc2)[C@H](O)CO)CC1)c1ccc(Cl)c(Cl)c1)C(=O)c1cc(C#N)cc2ccccc12 [Compound 23] here.
OUT: 1.17

IN: Specify ED50 for CN(C[C@@H](CCN1CCN(C(CO)(CO)c2ccco2)CC1)c1ccc(Cl)c(Cl)c1)C(=O)c1cc(C#N)cc2ccccc12 [Compound 6] and stop.
OUT: 0.282

---

Tgt: human NK1 receptors (Homo sapiens, UniProt P25103)
Construct: expressed in transfected cells; host or cells: CHO cells (membrane preparation)
Sequence (P25103 whole entry): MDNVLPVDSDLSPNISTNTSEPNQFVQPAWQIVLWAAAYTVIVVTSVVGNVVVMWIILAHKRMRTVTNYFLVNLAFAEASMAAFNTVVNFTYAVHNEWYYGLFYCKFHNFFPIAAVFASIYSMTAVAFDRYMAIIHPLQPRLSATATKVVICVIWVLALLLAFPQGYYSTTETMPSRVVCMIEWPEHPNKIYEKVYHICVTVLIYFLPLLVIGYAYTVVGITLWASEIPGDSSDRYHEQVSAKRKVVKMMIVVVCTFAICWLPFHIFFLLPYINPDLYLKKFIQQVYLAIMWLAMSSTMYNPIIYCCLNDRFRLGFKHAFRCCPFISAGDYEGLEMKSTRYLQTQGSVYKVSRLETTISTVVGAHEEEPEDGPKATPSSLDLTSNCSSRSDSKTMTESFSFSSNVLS
Assay Explanation: Binding of the test substances to NK1 receptors in vitro ([3H]-Substance P displacement, CHO cell membranes)
Run Parameters: [3H]-Substance P as ligand; membranes of CHO cells expressing the human NK1 receptor; Ki calculated from IC50; read-out: pKi (NK1) (converted)
Values of Ki strictly less than 3 nM map to met, and values of at least 3 nM map to not met.

Completed entries (count: 5):
CN(C[C@@H](CCN1CCN([C@@H](c2ccco2)[C@H](O)[C@H](O)[C@H](O)CO)CC1)c1ccc(Cl)c(Cl)c1)C(=O)c1cc(C#N)cc2ccccc12 | met
CN(C[C@@H](CCN1CCN([C@@H](c2cc3ccccc3o2)[C@H](O)CO)CC1)c1ccc(Cl)c(Cl)c1)C(=O)c1cc(C#N)cc2ccccc12 | not met
CN(C[C@@H](CCN1CCN([C@@H](c2cc3ccccc3s2)[C@H](O)CO)CC1)c1ccc(Cl)c(Cl)c1)C(=O)c1cc(C#N)cc2ccccc12 | not met
CN(C[C@@H](CCN1CCN([C@@H](c2ccoc2)[C@H](O)CO)CC1)c1ccc(Cl)c(Cl)c1)C(=O)c1cc(C#N)cc2ccccc12 | not met
CN(C[C@@H](CCN1CCN([C@@H](c2ccc(Cl)s2)[C@H](O)CO)CC1)c1ccc(Cl)c(Cl)c1)C(=O)c1cc(C#N)cc2ccccc12 | not met

IN: Lab note: confirm whether the reported Ki for this compound is below 3 nM, equality not counting. compound: CN(C[C@@H](CCN1CCN([C@@H](c2ccsc2)[C@H](O)[C@H](O)[C@H](O)CO)CC1)c1ccc(Cl)c(Cl)c1)C(=O)c1cc(C#N)cc2ccccc12
OUT: met

IN: For this compound, is Ki lower than 3 nM? CN(C[C@@H](CCN1CCN([C@@H](c2ccsc2)[C@H](O)[C@@H](O)[C@H](O)CO)CC1)c1ccc(Cl)c(Cl)c1)C(=O)c1cc(C#N)cc2ccccc12
OUT: met

IN: Record CN(C[C@@H](CCN1CCN(C(CO)c2ccco2)CC1)c1ccc(Cl)c(Cl)c1)C(=O)c1cc(C#N)cc2ccccc12 (stereo partly drawn) [Compound 28] : is its Ki strictly below 3 nM?
OUT: not met

IN: Input CN(C[C@@H](CCN1CCN([C@@H](c2ccsc2)[C@H](O)CO)CC1)c1ccc(Cl)c(Cl)c1)C(=O)c1cc(C#N)cc2ccccc12 ; condition: Ki strictly below 3 nM. Does it hold?
OUT: not met

---

Tgt: cloned human NK2 receptors (Homo sapiens, UniProt P21452)
Construct: expressed in transfected cells
Assay Explanation: Ca2+ measurements using FLIPR for NK2 activity in CHO cells
Assay type: cell-based
Run Parameters: NKA 10^-7 M as agonist; compound applied 7 min before; pA2 calculated from IC50
Measured Endpoint: Kb (nM)
Supply the numeric figure in nM, leaving out any unit text.

Reference set, count: 2
CN(C[C@@H](CCN1CCN([C@@H](c2cc3ccccc3o2)[C@H](O)CO)CC1)c1ccc(Cl)c(Cl)c1)C(=O)c1cc(C#N)cc2ccccc12 | 20
CN(C[C@@H](CCN1CCN(C(CO)c2ccco2)CC1)c1ccc(Cl)c(Cl)c1)C(=O)c1cc(C#N)cc2ccccc12 (stereo partly drawn) [Compound 25] | 1

Here is the next item to consider.
IN: State measured Kb of the molecule CN(C[C@@H](CCN1CCN(C(CO)c2ccco2)CC1)c1ccc(Cl)c(Cl)c1)C(=O)c1cc(C#N)cc2ccccc12 (stereo partly drawn) [Compound 28] with cloned human NK2 receptors (Homo sapiens, UniProt P21452).
OUT: 25.1
